protocol.details: protein stability index of a GFP-peptide fusion (GPS, HEK-293T) (PSI 1-6); higher = more stable;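 further: 24-mer peptide tiles fused after GFP, lentivirally expressed, FACS-sorted into six equal bins by GFP/DsRed ratio, decoded by Illumina sequencing, PSI is the read-weighted mean bin number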
run.conditions: treatment: MLN4924 1 uM, 8 h; c terminus: a fixed tail appended
Answer -1 if protein stability index is under 3, and 1 if it is 3 or more.

Example results:
QLKACTNFDDILNVCDDYDVTCNE [KCNG1]: 1
HFDATRGWLLTSGTDKVIKLWDMT [WDFY2]: -1
EEAEAGEEAVPEEEGPTVVLNPHP [CHGA]: 1
ASVDYIRKLQKEQQRSKDLESRQR [TFE3]: 1
EELEAKRLQCPFEQELLRRQQRLN [FAM107A]: 1

Does the reported protein stability index for SRGTSQTPNASSPGNPTALANGTV [LPCAT4] fall at or above the 3 mark?
1

Is protein stability index for FMGTISDVKTNVQLLKGRVDNIST [CD207] at or above 3?
1
